Assay: Measurement of LogP values by HPLC on reversed phase columns (EEC directive 79/831 Annex V.A8)
Format: physicochemical
Marks after values point to notes of the source that are not given here.
experimental-endpoint: LogP

compound="OC(Cn1cncn1)c1ccc(Oc2ccc(Cl)cc2)nc1F (centres unmarked) [I.41]" readout_value=2.23^[a]
compound="OC(Cn1cncn1)c1ccc(Oc2ccc(Br)cc2)nc1C(F)(F)F (centres unmarked) [I.40]" readout_value=2.82^[a]
compound="OC(Cn1cncn1)(c1ccc(Oc2ccc(Br)cc2)nc1C(F)(F)F)C1CC1 (racemic) [I.81]" readout_value=3.70^[a]
compound="O=C(CBr)c1cnc(Oc2ccc(Cl)cc2F)cc1C(F)(F)F [VI.24]" readout_value=4.34^[a]
compound="CC(=O)c1cnc(Oc2ccc(Cl)cc2)cc1C(C)=O [V.19]" readout_value=3.11^[a]
compound="O=C(Cn1cncn1)c1ncc(Oc2ccccc2)cc1Cl [VII.07]" readout_value=2.45^[a]
compound="Cc1cc(Cl)ccc1Oc1ccc(C(=O)Cn2cncn2)c(Cl)n1 [VII.10]" readout_value=2.94^[a]
compound="COc1ccc(Oc2ccc(C(C)=O)c(Cl)n2)c(Cl)c1 [V.29]" readout_value=3.44^[a]
compound="CC(=O)c1ccc(Oc2ccc(Cl)c(Cl)c2)nc1Cl [V.11]" readout_value=4.10^[a]
compound="O=C(CBr)c1ccc(Oc2ccc(C(F)F)cc2)nc1Cl [VI.17]" readout_value=3.57^[a]
compound="CC(=O)c1ccc(Oc2ccc(Cl)cc2)nc1C(F)F [V.05]" readout_value=3.35^[a]
compound="CC(C)CC(=O)c1ccc(Oc2ccc(Cl)cc2)nc1C(F)(F)F [V.47]" readout_value=4.98^[a]
compound="O=C(Cn1cncn1)c1cnc(Oc2ccc(C(F)(F)F)cc2)cc1C(F)(F)F [VII.28]" readout_value=3.17^[a]
compound="CC(O)(Cn1cncn1)c1ccc(Oc2ccc(Cl)cc2)nc1C(F)(F)F (centres unmarked) [I.96]" readout_value=2.68^[a]
compound="CC(=O)c1ccc(Oc2ccc(S(F)(F)(F)(F)F)cc2)nc1Cl [V.30]" readout_value=3.99^[a]
compound="CC(O)(Cn1cncn1)c1cnc(Oc2ccc(Cl)cc2)cc1C(F)F (centres unmarked) [I.64]" readout_value=2.68^[a]
compound="O=C(CCl)c1ccc(Oc2c(F)cc(Cl)cc2F)nc1C(F)(F)F [VI.31]" readout_value=4.26^[a]
compound="O=C(Cn1cncn1)c1ccc(Oc2c(F)cc(Cl)cc2F)nc1C(F)(F)F [VII.33]" readout_value=2.96^[a]
compound="O=C(CCl)c1cnc(Oc2ccc(C(F)F)cc2)cc1C(F)(F)F [VI.26]" readout_value=3.76^[a]
compound="OC(Cn1cncn1)c1cnc(Oc2ccc(S(F)(F)(F)(F)F)cc2)cc1C(F)(F)F (single isomer, unassigned) [I.83]" readout_value=3.11^[a]

----------
Tested on: Alternaria solani
Assay: Example F: in vivo preventive test on Alternaria test (tomatoes)
Details: 72 h, 100 ppm of active ingredient, preventive spray, evaluated 3 days after inoculation, read-out: efficacy
Let's look at some compounds and their measured pest or weed control at 100 ppm.
experimental-endpoint: pest or weed control at 100 ppm

compound="CC(O)(Cn1cncn1)c1ccc(Oc2ccc(C(F)F)cc2)nc1Cl (stereo not shown)" experimental_endpoint="pest or weed control at 100 ppm" readout_value="90 to 100%"
compound="OC(Cn1cncn1)c1ccc(Oc2ccc(Cl)cc2)nc1Cl (stereo not shown)" experimental_endpoint="pest or weed control at 100 ppm" readout_value="90 to 100%"
compound="OC(Cn1cncn1)c1ccc(Oc2ccc(Cl)cc2)nc1C(F)(F)F (stereo not shown)" experimental_endpoint="pest or weed control at 100 ppm" readout_value="80 to 89%"
compound="CC(O)(Cn1cncn1)c1ccc(Oc2ccc(S(F)(F)(F)(F)F)cc2)nc1Cl (stereo not shown)" experimental_endpoint="pest or weed control at 100 ppm" readout_value="90 to 100%"
compound="OC(Cn1cncn1)c1cnc(Oc2ccc(S(F)(F)(F)(F)F)cc2)cc1C(F)(F)F (stereo not shown)" experimental_endpoint="pest or weed control at 100 ppm" readout_value="90 to 100%"
compound="CC(O)(Cn1cncn1)c1cnc(Oc2ccc(Cl)cc2)cc1C(F)(F)F (stereo not shown)" experimental_endpoint="pest or weed control at 100 ppm" readout_value="90 to 100%"
compound=O=C(Cn1cncn1)c1ccc(Oc2ccc(Cl)cc2)nc1C(F)(F)F experimental_endpoint="pest or weed control at 100 ppm" readout_value="80 to 89%"
compound="CC(O)(Cn1cncn1)c1ccc(Oc2ccc(Cl)cc2)nc1C(F)(F)F (stereo not shown)" experimental_endpoint="pest or weed control at 100 ppm" readout_value="90 to 100%"
compound="OC(Cn1cncn1)c1cnc(Oc2ccc(C(F)(F)F)cc2)cc1C(F)(F)F (stereo not shown)" experimental_endpoint="pest or weed control at 100 ppm" readout_value="90 to 100%"
compound="Cc1ccc(Oc2ccc(C(C)(O)Cn3cncn3)c(Cl)n2)cc1Cl (stereo not shown)" experimental_endpoint="pest or weed control at 100 ppm" readout_value="90 to 100%"

This collection of values is drawn from patent US10485236B2.
